# study target: KRAS G12V (Homo sapiens (Human), UniProt P01116+P62937, G12V)
# Sequence (P01116-2 other isoform, or with tags, fused parts or gaps G12V): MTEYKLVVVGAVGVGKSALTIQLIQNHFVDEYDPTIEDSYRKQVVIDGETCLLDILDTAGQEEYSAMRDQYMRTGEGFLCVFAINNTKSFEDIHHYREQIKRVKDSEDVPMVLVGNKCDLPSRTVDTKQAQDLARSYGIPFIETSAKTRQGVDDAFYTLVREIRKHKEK
# Sequence (P62937 whole entry): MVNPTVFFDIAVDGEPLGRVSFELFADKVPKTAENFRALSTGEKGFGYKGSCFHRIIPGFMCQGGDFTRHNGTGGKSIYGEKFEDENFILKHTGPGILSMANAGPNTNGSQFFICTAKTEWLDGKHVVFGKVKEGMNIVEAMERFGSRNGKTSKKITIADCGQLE
# assay details: Ras-Raf (BRAF RBD) disruption / FRET / MOA assay, KRAS G12V
# Type: biochemical
# condition summary: read-out: IC50* KRAS G12V FRET data
# Description: The purpose of this biochemical assay is to measure the ability of test compounds to facilitate ternary complex formation between a nucleotide-loaded Ras isoform and cyclophilin A; the resulting ternary complex disrupts binding to a BRAF^RBD construct, inhibiting Ras signaling through a RAF effector. Compound is present in plate wells as a 10-point 3-fold dilution series starting at a final concentration of 30 μM. […]
pIC50: −log10 of the molar value.
property: pIC50

Worked set:
molecule | assay result
C=CC(=O)N1CC[C@H](C(=O)N(C)[C@H](C(=O)N[C@H]2CC3=NC=C(O3)c3ccc4c(c3)c(c(-c3cccnc3[C@H](C)OC)n4CC)CC(C)(C)COC(=O)[C@@H]3CCCN(N3)C2=O)C(C)C)C1 (atropisomer, axis not shown) | 5.00 to 6.00
CCn1c(-c2cccnc2[C@H](C)OC)c2c3cc(ccc31)-c1csc(n1)C[C@H](NC(=O)[C@H](C(C)C)N1CC[C@@]3(CCN(C(=O)C#CC(C)(C)N(C)C)C3)C1=O)C(=O)N1CCC[C@H](N1)C(=O)OCC(C)(C)C2 (single isomer, unassigned) | < 5.00
CCn1c(-c2cccnc2[C@H](C)OC)c2c3cc(ccc31)-c1csc(n1)C[C@H](NC(=O)[C@H](C(C)C)N(C)C(=O)N(C)C1CN(C(=O)/C=C/[C@H]3CCCN3C)C1)C(=O)N1CCC[C@H](N1)C(=O)OCC(C)(C)C2 (atropisomer, axis not shown) | 5.00 to 6.00

Turning now to a further molecule:
Q) What value of measured pIC50 is listed for "CCn1c(-c2cccnc2[C@H](C)OC)c2c3cc(ccc31)-c1cccc(c1)C[C@H](NC(=O)[C@H](C(C)C)N(C)C(=O)[C@H]1CCN(C(=O)C#C[C@]3(C)CCCN3C)C1)C(=O)N1CCC[C@H](N1)C(=O)OCC(C)(C)C2" ?
A) 5.00 to 6.00

---

Can you tell me IC50 for the items I'm about to list?
# study target: KRAS WT (Homo sapiens (Human), UniProt P01116+P62937)
# Sequence (P01116-2 other isoform, or with tags, fused parts or gaps, one chain of several): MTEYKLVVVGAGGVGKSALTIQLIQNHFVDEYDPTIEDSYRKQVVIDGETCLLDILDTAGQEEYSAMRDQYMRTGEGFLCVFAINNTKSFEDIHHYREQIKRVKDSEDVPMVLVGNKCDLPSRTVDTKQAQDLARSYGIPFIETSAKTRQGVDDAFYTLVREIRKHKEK
# assay details: Ras-Raf (BRAF RBD) disruption / FRET / MOA assay, KRAS WT
# Type: biochemical
# condition summary: read-out: IC50* KRAS WT FRET data

These solved cases illustrate the format of a correct answer.
compound | IC50
C=CC(=O)N1CCO[C@H]2CN(C(=O)N(C)[C@H](C(=O)N[C@H]3Cc4cccc(n4)-c4ccc5c(c4)c(c(-c4cccnc4[C@H](C)OC)n5CC)CC(C)(C)COC(=O)[C@@H]4CCCN(N4)C3=O)C(C)C)C[C@H]21 (atropisomer, axis not shown) | 1 to 10 µM
CCn1c(-c2cccnc2[C@H](C)OC)c2c3cc(ccc31)-c1cccc(c1)C[C@H](NC(=O)CCOC1CN(C(=O)C#CC(C)(C)N(C)C)C1)C(=O)N1CCC[C@H](N1)C(=O)OCC(C)(C)C2 (atropisomer, axis not shown) | > 10 µM
CCn1c(-c2cccnc2COC)c2c3cc(ccc31)-c1cc(O)cc(c1)C[C@H](NC(=O)[C@H](C(C)C)N(C)C(=O)[C@@H]1CCN(C(=O)C#CC(C)(C)N(C)C)C1)C(=O)N1CCC[C@H](N1)C(=O)OCC(C)(C)C2 | 1 to 10 µM
C=CC(=O)N(C)CC1CN(C(=O)N(C)[C@H](C(=O)N[C@H]2Cc3nc(cs3)-c3ccc4c(c3)c(c(-c3cccnc3[C@H](C)OC)n4CC)CC(C)(C)COC(=O)[C@@H]3CCCN(N3)C2=O)C(C)C)C1 (atropisomer, axis not shown) | 0.1 to 1 µM
C=CC(=O)N1CC(OC[C@H](C(=O)N[C@H]2C[C@H]3CN(CCO3)c3ccc4c(c3)c(c(-c3cccnc3[C@H](C)OC)n4CC(F)(F)F)CC(C)(C)COC(=O)[C@@H]3CCCN(N3)C2=O)C(C)C)C1 (atropisomer, axis not shown) | 1 to 10 µM

Hi there! I need IC50 for each item below, if you can.
1. C=CC(=O)N1CC[C@H](C(=O)N(C)[C@H](C(=O)N[C@H]2Cc3cc(O)cc(c3)-c3ccc4c(c3)c(c(-c3ccc(OCC(=O)O)cc3)n4CC)CC(C)(C)COC(=O)[C@@H]3CCCN(N3)C2=O)C(C)C)C1
2. C=CC(=O)N1CC(OC[C@H](C(=O)N[C@H]2Cc3nc(cs3)-c3ccc4c(c3)c(c(-c3cccnc3[C@H](C)OC)n4CC)CC(C)(C)COC(=O)[C@@H]3CCCN(N3)C2=O)C(C)C)C1 (atropisomer, axis not shown)
3. C=CC(=O)N1CC[C@H](C(=O)N(C)[C@H](C(=O)N[C@H]2Cc3cccc(c3)-c3ccc4c(c3)c(c(-c3cc(CN(C)C)cnc3[C@H](C)OC)n4CC)CC(C)(C)COC(=O)[C@@H]3CCCN(N3)C2=O)C(C)C)C1 (atropisomer, axis not shown) [Example A522]

A)
1. > 10 µM
2. 1 to 10 µM
3. 1 to 10 µM

---

# study target: KRAS WT (Homo sapiens (Human), UniProt P01116+P62937)
# assay details: Ras-Raf (BRAF RBD) disruption / FRET / MOA assay, KRAS WT
# Type: biochemical
# condition summary: read-out: IC50* KRAS WT FRET data
Kindly supply the reported IC50 values for the records listed here.

compound | assay result
C=CC(=O)N1CC[C@H](C(=O)N(C)[C@H](C(=O)N[C@H]2Cc3nc(ns3)-c3ccc4c(c3)c(c(-c3cccnc3[C@H](C)OC)n4CC)CC(C)(C)COC(=O)[C@@H]3CCCN(N3)C2=O)C(C)C)C1 (atropisomer, axis not shown) [Example A202] | > 10000 nM

Hey, can you go through the list below and give me IC50 for every item?
1. C=CC(=O)N1CC[C@H]2[C@@H](C1)CN2C(=O)N(C)[C@H](C(=O)N[C@H]1Cc2nc(cs2)-c2ccc3c(c2)c(c(-c2cccnc2[C@H](C)OC)n3CC)CC(C)(C)COC(=O)[C@@H]2CCCN(N2)C1=O)C(C)C (atropisomer, axis not shown) [Example A687]
2. CCn1c(-c2cccnc2[C@H](C)OC)c2c3cc(ccc31)-c1cc(O)cc(c1)C[C@H](NC(=O)[C@H](C(C)C)N1CCC3(CCN(C(=O)/C=C/CN(C)C)CC3)C1=O)C(=O)N1CCC[C@H](N1)C(=O)OCC(C)(C)C2 (atropisomer, axis not shown) [Example A267]
3. C=CC(=O)N1CC[C@H](C(=O)N(C)[C@H](C(=O)N[C@H]2Cc3cccc(c3)-c3ccc4c(c3)c(c(-c3cc(C5CCN(C)CC5)cnc3[C@H](C)OC)n4CC)CC(C)(C)COC(=O)[C@@H]3CCCN(N3)C2=O)C(C)C)C1 (atropisomer, axis not shown) [Example A516]

A)
100 to 1000 nM
100 to 1000 nM
> 10000 nM

---

# study target: KRAS G13D (Homo sapiens (Human), UniProt P01116+P62937, G13D)
# Sequence (P01116-2 other isoform, or with tags, fused parts or gaps G13D): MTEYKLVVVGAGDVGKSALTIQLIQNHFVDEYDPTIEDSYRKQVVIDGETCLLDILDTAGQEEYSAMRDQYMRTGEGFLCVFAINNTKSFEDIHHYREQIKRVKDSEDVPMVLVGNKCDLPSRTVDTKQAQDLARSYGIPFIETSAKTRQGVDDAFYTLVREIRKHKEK
# Sequence (P62937 whole entry): as the sequence (P62937 whole entry) above
# assay details: Ras-Raf (BRAF RBD) disruption / FRET / MOA assay, KRAS G13D
# Format: biochemical
# condition summary: read-out: IC50* KRAS G13D FRET data
Kindly state IC50 for each of the entries shown.

molecule | assay result
C=CC(=O)N(C)[C@H]1C[C@@H](N(C)C(=O)N(C)[C@H](C(=O)N[C@H]2Cc3nc(cs3)-c3ccc4c(c3)c(c(-c3cccnc3[C@H](C)OC)n4CC)CC(C)(C)COC(=O)[C@@H]3CCCN(N3)C2=O)C(C)C)C1 (atropisomer, axis not shown) [Example A704] | 100 to 1000 nM

Kindly consider the entry below.
Q) Request the reported IC50 associated with C=CC(=O)N1CCC2(CCN([C@H](C(=O)N[C@H]3Cc4cc(O)cc(c4)-c4ccc5c(c4)c(c(-c4cccnc4[C@H](C)OC)n5CC)CC(C)(C)COC(=O)[C@@H]4CCCN(N4)C3=O)C(C)C)C2=O)C1 (some centres unmarked) [Example A295]
A) 100 to 1000 nM

---

# study target: KRAS G12V (Homo sapiens (Human), UniProt P01116+P62937, G12V)
# assay details: Ras-Raf (BRAF RBD) disruption / FRET / MOA assay, KRAS G12V
# Assay type: biochemical
# condition summary: read-out: IC50* KRAS G12V FRET data
pIC50: −log10 of the molar value.
property: pIC50

molecule | property | assay result
CCn1c(-c2cccnc2[C@H](C)OC)c2c3cc(ccc31)-c1cc(O)cc(c1)C[C@H](NC(=O)[C@H](C(C)C)N(C)C(=O)[C@H]1CCN(C(=O)C#CCN3[C@@H](C)COC[C@@H]3C)C1)C(=O)N1CCC[C@H](N1)C(=O)OCC(C)(C)C2 (atropisomer, axis not shown) [Example A244] | pIC50 | 6.00 to 7.00

Hi! Can you tell me pIC50 for each of these molecules?
1. C=CC(=O)N1CC(OCC(C(=O)N[C@H]2Cc3cccc(c3)-c3ccc4c(c3)c(c(-c3cccnc3[C@H](C)OC)n4CC(F)(F)F)CC(C)(C)COC(=O)[C@@H]3CCCN(N3)C2=O)C(C)C)C1 (mixture of isomers) [Example A453]
2. CO[C@@H](C)c1ncccc1-c1nc2ccc3cn2c1CC(C)(C)COC(=O)[C@@H]1CCCN(N1)C(=O)[C@@H](NC(=O)[C@H](C(C)C)N(C)C(=O)[C@H]1CCN(C(=O)C#CC(C)(C)N(C)C)C1)Cc1cccc-3c1 [Example A311]
3. CCn1c(-c2cccnc2[C@H](C)OC)c2c3cc(ccc31)-c1cccc(c1)C[C@H](NC(=O)CCOC1CN(C(=O)C#CC(C)(C)N3CCC3)C1)C(=O)N1CCC[C@H](N1)C(=O)OCC(C)(C)C2 (atropisomer, axis not shown) [Example A478]
4. C=CC(=O)N1CC[C@H](C(=O)N(C)[C@H](C(=O)N[C@H]2Cc3cccc(c3)-c3ccc4c(c3)c(c(-c3cccnc3[C@H](C)OC)n4CC)CC(C)(C)COC(=O)[C@@H]3CCCN(N3)C2=O)C2CC2)C1 (atropisomer, axis not shown) [Example A320]
5. CCn1c(-c2cccnc2[C@H](C)OC)c2c3cc(ccc31)-c1nc(cs1)C[C@H](NC(=O)[C@H](C(C)C)N(C)C(=O)[C@H]1CCN(C(=O)C#CC(C)(C)N3CCC3)C1)C(=O)N1CCC[C@H](N1)C(=O)OCC(C)(C)C2 (atropisomer, axis not shown) [Example A440]
6. CCn1c(-c2cccnc2[C@H](C)OC)c2c3cc(ccc31)-c1cc(O)cc(c1)C[C@H](NC(=O)[C@H](C(C)C)N(C)C(=O)[C@H]1CCN(C(=O)/C=C/C(F)(F)F)C1)C(=O)N1CCC[C@H](N1)C(=O)OCC(C)(C)C2 [Example A527]

A)
1: < 5.00; 2: < 5.00; 3: < 5.00; 4: 5.00 to 6.00; 5: 5.00 to 6.00; 6: 7.00 to 8.00

Would you be so kind as to report pIC50 for each listed record?
1. C=CC(=O)N1CC(N2CCN(C(=O)N(C)[C@H](C(=O)N[C@H]3Cc4nc(cs4)-c4ccc5c(c4)c(c(-c4cccnc4[C@H](C)OC)n5CC)CC(C)(C)COC(=O)[C@@H]4CCCN(N4)C3=O)C(C)C)CC2)C1 (atropisomer, axis not shown) [Example A668]
2. C=CC(=O)N1CC[C@H](C(=O)N(C)[C@H](C(=O)N[C@H]2Cc3cc(cc(C(F)F)c3)-c3ccc4c(c3)c(c(-c3cc(N5CCN(C)CC5)cnc3[C@H](C)OC)n4CC(F)(F)F)CC(C)(C)COC(=O)[C@@H]3CCCN(N3)C2=O)C(C)C)C1 (atropisomer, axis not shown) [Example A357]
3. C=CC(=O)N1CC[C@H](C(=O)N(C)[C@H](C(=O)N[C@H]2Cc3csc(n3)-c3ccc4c(c3)c(c(-c3cccnc3COC)n4CC)CC(C)(C)COC(=O)[C@@H]3CCCN(N3)C2=O)C(C)C)C1 [Example A118]
4. CCn1c(-c2cccnc2[C@H](C)OC)c2c3cc(ccc31)-c1csc(n1)C[C@H](NC(=O)[C@@H](COC1CN(C(=O)C#CC(C)(C)N(C)C)C1)C(C)C)C(=O)N1CCC[C@H](N1)C(=O)OCC(C)(C)C2 (atropisomer, axis not shown) [Example A721]
5. CCn1c(-c2cccnc2[C@H](C)OC)c2c3cc(ccc31)-c1csc(n1)C[C@H](NC(=O)[C@H](C(C)C)N(C)C(=O)N1CCC13CN(C(=O)/C=C/CN1CCOCC1)C3)C(=O)N1CCC[C@H](N1)C(=O)OCC(C)(C)C2 (atropisomer, axis not shown) [Example A611]
6. C/C=C(\C)S(=O)(=O)N1CC[C@H](C(=O)N(C)[C@H](C(=O)N[C@H]2Cc3cc(O)cc(c3)-c3ccc4c(c3)c(c(-c3cccnc3[C@H](C)OC)n4CC)CC(C)(C)COC(=O)[C@@H]3CCCN(N3)C2=O)C(C)C)C1 (atropisomer, axis not shown) [Example A306]
7. C=CC(=O)N1CCN(C(=O)N(C)[C@H](C(=O)N[C@H]2Cc3cc(O)cc(c3)-c3ccc4c(c3)c(c(-c3ccccc3CCOC)n4CC)CC(C)(C)COC(=O)[C@@H]3CCCN(N3)C2=O)C(C)C)C[C@H]1COC [Example A146]
8. CCn1c(-c2cccnc2[C@H](C)OC)c2c3cc(ccc31)-c1csc(n1)C[C@H](NC(=O)[C@H](C(C)C)N(C)C(=O)N1CCCOC13CN(C(=O)C#CC(C)(C)N(C)C)C3)C(=O)N1CCC[C@H](N1)C(=O)OCC(C)(C)C2 (atropisomer, axis not shown) [Example A666]

A)
1. 6.00 to 7.00
2. 6.00 to 7.00
3. < 5.00
4. 5.00 to 6.00
5. 6.00 to 7.00
6. 6.00 to 7.00
7. 5.00 to 6.00
8. < 5.00

Data provenance is patent US11566007B2.
